- subjectOfTest: T1, human Sdc2 (human, UniProt P34741 19-144, limits assumed)
- T1 construct: Antigen of the Octet tandem binning, loaded on biosensors at 100 nM; also called huSdc2; hSdc2
- assay: Octet tandem binning; Buffer in place of a saturating Ab

>  <binder>
19838-6-N03-A (antibody, IgG1, V domains shown) VH: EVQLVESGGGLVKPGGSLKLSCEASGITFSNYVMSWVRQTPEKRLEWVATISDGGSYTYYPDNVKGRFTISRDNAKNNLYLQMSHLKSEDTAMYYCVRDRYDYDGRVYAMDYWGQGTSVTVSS VL: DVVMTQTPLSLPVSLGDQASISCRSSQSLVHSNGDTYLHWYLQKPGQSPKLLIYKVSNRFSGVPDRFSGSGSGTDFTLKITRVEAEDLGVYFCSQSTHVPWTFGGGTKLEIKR

>  <raw competing-Ab binding signal>
0.413

$$$$
>  <binder>
8-G17-A (antibody, V domains shown, PentaMice hybridoma clone, made recombinantly in CHO cells) VH: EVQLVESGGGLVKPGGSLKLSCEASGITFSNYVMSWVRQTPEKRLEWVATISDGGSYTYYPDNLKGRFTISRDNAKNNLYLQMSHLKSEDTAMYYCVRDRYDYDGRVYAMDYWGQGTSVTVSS VL: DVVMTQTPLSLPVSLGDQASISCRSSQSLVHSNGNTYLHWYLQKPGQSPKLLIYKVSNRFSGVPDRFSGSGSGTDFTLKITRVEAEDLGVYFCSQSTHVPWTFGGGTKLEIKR

>  <raw competing-Ab binding signal>
0.83

$$$$
>  <binder>
R4M-P3-E06 (antibody, human IgG1, kappa, V domains shown, human IgG1 kappa from the phage campaign) VH: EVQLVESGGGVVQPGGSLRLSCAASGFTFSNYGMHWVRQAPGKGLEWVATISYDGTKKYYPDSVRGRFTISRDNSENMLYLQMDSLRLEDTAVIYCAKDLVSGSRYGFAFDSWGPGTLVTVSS VL: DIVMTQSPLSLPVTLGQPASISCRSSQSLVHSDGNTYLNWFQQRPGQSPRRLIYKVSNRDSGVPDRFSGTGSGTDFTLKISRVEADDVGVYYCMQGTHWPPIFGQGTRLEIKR

>  <raw competing-Ab binding signal>
0.256

$$$$
>  <binder>
R4M-P1-A10 (antibody, human IgG1, kappa, V domains shown) VH: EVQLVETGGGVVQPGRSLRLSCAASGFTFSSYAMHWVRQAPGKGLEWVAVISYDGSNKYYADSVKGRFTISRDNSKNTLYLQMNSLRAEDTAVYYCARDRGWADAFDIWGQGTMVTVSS VL: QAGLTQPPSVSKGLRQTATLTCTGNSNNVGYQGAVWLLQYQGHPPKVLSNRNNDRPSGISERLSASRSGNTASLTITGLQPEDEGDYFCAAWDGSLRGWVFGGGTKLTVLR

>  <raw competing-Ab binding signal>
0.337

$$$$
